System: Calu-3 (Her2 amp)
Assay Procedure: Growth inhibition GI50 in vitro (CCK8/MTT, 72 h)
Type: cell-based
Recorded Conditions: Homo sapiens; Calu-3, EGFR wt, Her2 amp; read-out: GI50

# Compound Structure, Tested System, GI50 / nM
measured = [
    ("C=CC(=O)Nc1cc(Nc2ncc(Cl)c(Nc3ccc(OCc4ccccn4)c(Cl)c3)n2)c(OC)cc1N(C)CCN(C)C", "Calu-3 (Her2 amp)", 19.5),
    ("C=CC(=O)Nc1cc(Nc2ncnc(Nc3cccc(F)c3)n2)c(OC)cc1N(C)CCN(C)C", "Calu-3 (Her2 amp)", 7.2),
    ("C=CC(=O)Nc1cc(Nc2cc(-c3cn(C(C)C)c4ccccc34)ncn2)c(OC)cc1N(C)CCN(C)C", "Calu-3 (Her2 amp)", 23.4),
    ("C=CC(=O)Nc1cc(Nc2ncnc(Nc3cccc(Br)c3)n2)c(OC)cc1N1CCC(N2CCCC2)CC1", "Calu-3 (Her2 amp)", 14.6),
    ("C=CC(=O)Nc1cc(Nc2nccc(Nc3cccc(Cl)c3)n2)c(OC)cc1N(C)CCN(C)C", "Calu-3 (Her2 amp)", 31.2),
]

Value source: patent US10342796B2
